# Tested on: BDF1 mice, P388 leukemia ip, median survival T/C
# assay: NCI In Vivo Anticancer Drug Screen. Data for tumor model P388 Leukemia (intraperitoneal) in B6D2F1 (BDF1) mice
# measurement context: endpoint: median survival time; dose: 200.0 mg/kg/injection; schedule: Q01DX009 (ip); vehicle: saline with Tween-80; higher = longer survival
Inconclusive results and toxic doses are left out.
measured quantity: T/C

Which T/C is listed for `COc1cc2ccnc(Cc3ccccc3)c2cc1OC` ?
104 % of control

Which T/C is listed for `C[C@]12C=CC(=O)C[C@@H]1CC[C@@H]1[C@@H]2C(=O)C[C@]2(C)C(=O)CC[C@@H]12` ?
100 % of control

Which T/C is listed for C#CC1(OCC(O)CCl)CCCCC1 (stereo unspecified) ?
104 % of control

Which T/C is listed for CCCCCC1(C)OCC(C)O1 (stereo unspecified) ?
109 % of control

Which T/C is listed for `CC(C)(C)CC(C)(C)c1ccc(OCCOS(=O)(=O)c2cccc([N+](=O)[O-])c2)cc1` ?
118 % of control

Which T/C is listed for CCCCCC1c2c(cc(C)[nH]c2=O)OC(O)C1CCCC (stereo unspecified) ?
94 % of control

The reported numbers originate from PubChem BioAssay AID328.
